# Target Or Test System: Spike protein of SARS-CoV-2 strain EG.5.1 (hCoV-19/France/GES-IPP15954/2023) (SARS-CoV-2)
# Assay Details: cell-based or functional assay
Overview of reported IC50, S-Fuse neutralization of live virus across a group of binders:
Value Kind: IC50, S-Fuse neutralization of live virus

Binder | Experimental Value
SPK002M A1 antibody (antibody, human IgG1, kappa, V domains shown) VH: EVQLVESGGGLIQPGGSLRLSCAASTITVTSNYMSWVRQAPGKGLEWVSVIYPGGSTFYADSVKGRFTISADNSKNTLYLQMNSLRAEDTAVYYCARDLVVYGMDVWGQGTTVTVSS VL: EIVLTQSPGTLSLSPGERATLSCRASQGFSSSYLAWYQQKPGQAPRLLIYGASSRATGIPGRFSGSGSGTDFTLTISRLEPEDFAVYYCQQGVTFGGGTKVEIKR | 0.15 µg/mL
SPK002M A5 antibody (antibody, human IgG1, kappa, V domains shown) VH: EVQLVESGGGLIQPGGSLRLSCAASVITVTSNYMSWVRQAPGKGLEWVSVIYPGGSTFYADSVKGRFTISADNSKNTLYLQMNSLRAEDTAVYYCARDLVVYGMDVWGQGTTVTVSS VL: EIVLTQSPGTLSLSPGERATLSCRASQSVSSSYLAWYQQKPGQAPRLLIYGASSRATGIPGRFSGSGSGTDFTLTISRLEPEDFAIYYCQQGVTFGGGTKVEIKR | 2.86 µg/mL
SPK002M C2 antibody (antibody, human IgG1, kappa, V domains shown) VH: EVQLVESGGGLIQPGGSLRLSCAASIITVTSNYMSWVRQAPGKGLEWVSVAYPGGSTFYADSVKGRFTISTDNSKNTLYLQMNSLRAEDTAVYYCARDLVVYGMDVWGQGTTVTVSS VL: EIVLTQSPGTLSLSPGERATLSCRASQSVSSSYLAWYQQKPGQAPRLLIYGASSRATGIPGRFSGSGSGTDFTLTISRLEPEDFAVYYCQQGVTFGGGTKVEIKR | 2.16 µg/mL
SPK002M B1 antibody (antibody, human IgG1, kappa, V domains shown) VH: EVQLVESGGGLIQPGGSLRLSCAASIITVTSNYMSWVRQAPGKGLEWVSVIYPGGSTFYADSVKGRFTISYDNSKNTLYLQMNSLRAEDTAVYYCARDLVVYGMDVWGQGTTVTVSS VL: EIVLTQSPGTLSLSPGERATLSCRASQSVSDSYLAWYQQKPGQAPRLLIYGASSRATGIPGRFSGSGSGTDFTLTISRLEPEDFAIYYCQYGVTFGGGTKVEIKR | 0.19 µg/mL
SPK002M A3 antibody (antibody, human IgG1, kappa, V domains shown) VH: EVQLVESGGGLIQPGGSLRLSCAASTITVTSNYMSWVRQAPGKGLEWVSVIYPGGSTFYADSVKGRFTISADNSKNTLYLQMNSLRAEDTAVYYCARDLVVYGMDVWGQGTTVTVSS VL: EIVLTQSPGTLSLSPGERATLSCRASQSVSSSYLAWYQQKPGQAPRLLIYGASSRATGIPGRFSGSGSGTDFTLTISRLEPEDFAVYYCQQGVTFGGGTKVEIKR | 5.92 µg/mL
